system: OVCAR-4; test: NCI tumour cell line growth inhibition, 48 h
Activity calls are given as the source filed them. No stated cut-off is given here; in the data, active = GI50 up to about 1.1 µM and inactive = higher.
Exercise: state measured GI50 for each of the compounds provided.

Compound	GI50
COc1ccc(NC(=O)C(=O)Cc2nc3ccc([N+](=O)[O-])cc3nc2O)c(OC)c1	> 100 µM (inactive)
Oc1cn(-c2ccc(Cl)cc2)nc1-c1n[nH]c(=S)n1-c1ccccc1	52.6 µM (inactive)

Look up GI50 for the entries below, preserving their order.
1. c1ccc2c(c1)SP1Sc3ccccc3P21 (stereo not drawn)
2. COC(=O)n1c(=O)n(-c2ccccc2)c(=O)n1C(=O)Nc1ccccc1
3. c1cc(CSc2ncnc3[nH]cnc23)ccn1
4. C/C(=C\Cc1cc(O)ccc1O)CCc1c(C)cc(O)c(C=O)c1C
5. NNC(=O)c1cc(Cl)ccc1NC(=O)C12CC3CC(CC(C3)C1)C2

**A:**
72.3 µM (inactive)
3.42 µM (inactive)
> 100 µM (inactive)
26.4 µM (inactive)
21.8 µM (inactive)

Batch of 2 compounds: report GI50 for each.
1. CCCCCCCCCCCCCCCCOCC(COP(=O)([O-])OCC[n+]1ccc(N(C)C)cc1)OCC (stereo not drawn)
2. O=C(O)Cc1cc(O)c(CC(=O)O)cc1O

**A:**
1. 15.8 µM (inactive)
2. > 100 µM (inactive)

###

tested on: SNB-75; experiment: NCI tumour cell line growth inhibition, 48 h
Active and inactive are the calls of the source. No stated cut-off is given here; in the data, active = GI50 up to about 1.1 µM and inactive = higher.
Would you mind answering with one of these outcomes? active, inactive

Example results:
Compound	Qualitative Label
COc1ccc(NC(=O)C(=O)Cc2nc3ccc([N+](=O)[O-])cc3nc2O)c(OC)c1	inactive
c1ccc2c(c1)SP1Sc3ccccc3P21 (stereo not given)	inactive
CC(=O)O[C@@H]1CO[C@H]2O[C@H]3[C@@H](C(C=O)=C[C@H](O)[C@@H]4C5=C(C(C)C)CC[C@]5(C)CC[C@@]34C)[C@@]2(O)C1=O	active
O=C1C(Cl)=C(Cl)C(Cl)(Cl)C(Cl)C1(Cl)Cl (stereo not given)	inactive
COc1cc2c3cc1Oc1c(OC)c(OC)cc4c1[C@@H](Cc1ccc(O)c(c1)Oc1ccc(cc1)C[C@@H]3N(C)CC2)N(C)CC4.c1ccccc1	inactive

**Q:** Which outcome was entered for the compound COc1cc(Br)cc2cc(-c3cn4ccsc4n3)c(=O)oc12 in this test?
**A:** inactive

**Q:** Dear colleague, could you share the recorded outcome for Cc1cc(C)cc(NC(=O)CCC(=O)C2CCC/C2=N\NC(=O)C(=O)NN)c1 (stereo not given) when you have a moment?
**A:** inactive

**Q:** Which outcome was entered for the compound CC1OC(OC2C(O)COC(OC3C(C)OC(OC4C(OC(=O)[C@]56CCC(C)(C)C[C@@H]5C5=CCC7[C@@]8(C)C[C@H](O)[C@H](OC9OC(CO)C(O)C(OC%10OC(CO)C(O)C(O)C%10O)C9O)[C@@](C)(CO)[C@@H]8CC[C@@]7(C)[C@]5(C)CC6)OCC(O)C4O)C(O)C3OC3OCC(O)C(O)C3O)C2O)C(O)C(O)C1O (stereo not given in full) in this test?
**A:** inactive

**Q:** Dear all, I need the recorded test outcome for Cc1cc(C)nc(NS(=O)(=O)c2ccc(Nc3c4ccccc4nc4ccc(C(=O)Nc5ccc(S(N)(=O)=O)cc5)cc34)cc2)n1 , thank you.
**A:** inactive

**Q:** Can you look up the reported call for [O-][S+](C(c1ccccc1)=P(c1ccccc1)(c1ccccc1)c1ccccc1)c1ccc(Cl)cc1 (stereo not given) for me?
**A:** inactive

**Q:** Record request — test call for NC(Cc1ccc(OCc2ccccc2)cc1)C(=O)NC(Cc1ccccc1)C(=O)Oc1c(Cl)c(Cl)c(Cl)c(Cl)c1Cl (stereo not given)
**A:** inactive

**Q:** In this assay, the call recorded for Cc1cccc(C(C)(C)C)c1NC(=O)C(=O)C(C(=O)/C=C\c1ccccc1)C1OC(=O)c2ccccc21 (stereo not given) was what?
**A:** inactive

###

tested on: EKVX; experiment: NCI tumour cell line growth inhibition, 48 h
Calls of active or inactive are those of the source. No stated cut-off is given here; in the data, active = GI50 up to about 1.1 µM and inactive = higher.
Give your call using only these classes: active, inactive

Molecule	Qualitative Label
CC1OC(O[C@H]2C3C=CO[C@@H](OC4OC(CO)C(O)C(O)C4O)C3[C@@]3(COC(=O)/C=C/c4ccccc4)O[C@@H]23)C(O)C(O)C1O (stereo partly specified)	inactive
COC(=O)c1ccc(CCc2cc(O)c(Br)cc2O)cc1	inactive

**Q:** # outcome recorded in this test, key = CC1(C)CC2(C)OC(=N)C1(C#N)C2(C#N)C#N (stereo unspecified)
**A:** inactive

**Q:** Hi team, can someone confirm the assay call for Nc1ccc2c(c1)CN1C(=O)c3ccccc3C1=N2 [DANIQUIDONE] ?
**A:** inactive

**Q:** So what was the verdict on C#Cc1cccc(NC(=O)/C=C\C(=O)O)c1 in this test?
**A:** inactive

**Q:** What outcome does the record of this test show for COc1ccc(C[C@H]2NC[C@H](O)[C@H]2OC(C)=O)cc1 [ANISOMYCIN] ?
**A:** active

###

tested on: EKVX; experiment: NCI tumour cell line growth inhibition, 48 h
Activity calls are given as the source filed them. No stated cut-off is given here; in the data, active = GI50 up to about 1.1 µM and inactive = higher.
Readout Type: GI50

Solved entries:
Compound	Target Or System	Result
COc1ccc(NC(=O)CC(=O)n2nc(-c3ccccc3)c(/N=N/c3ccccc3C)c2-c2ccccc2)cc1	EKVX	16.3 µM (inactive)
CCc1cccc(C)c1NC(=O)CC(=O)NNC(N)=S	EKVX	> 100 µM (inactive)
O=C(O)Cc1cc(O)c(CC(=O)O)cc1O	EKVX	> 100 µM (inactive)

Here are 6 compounds. What values of GI50 were reported for them?
1. Cc1ccc2c(c1)C(=O)N(N(C)C)CC(=O)N2
2. CNc1ccc([S+]([O-])Nc2ccccc2)cc1 (stereo unspecified)
3. Cc1cc(C)cc(NC(=O)CCC(=O)C2CCC/C2=N\NC(=O)C(=O)NN)c1 (stereo unspecified)
4. Cn1c(=O)cc(NNc2ccccc2)[nH]c1=O
5. Cc1nc([N+](=O)[O-])cn1-c1nc2ccccn2c1[N+](=O)[O-]
6. COC(=O)c1c(CC(Cc2ccc3c(c2)CCCC3)C(=O)OC)ccc2c1CCCC2 (stereo unspecified)

**A:**
["> 100 µM (inactive)", "30.5 µM (inactive)", "> 100 µM (inactive)", "36.1 µM (inactive)", "63.7 µM (inactive)", "19.5 µM (inactive)"]

Give GI50 for each of the items listed below.
1. CCOC(=O)C(=O)C(=O)NN(C)C1=NCCN1
2. CC1C(C#N)(C#N)C(C#N)=C(N)C1(C)[N+](=O)[O-] (stereo unspecified)

**A:**
["> 100 µM (inactive)", "21.5 µM (inactive)"]

###

test system: SR; test: NCI tumour cell line growth inhibition, 48 h
Active and inactive are the calls of the source. Cut-off read from the data, not from the text of the source: active = GI50 up to about 1.1 µM and inactive = higher.
I'd appreciate it if you could supply GI50 values for the items below.

Compound	Readout Type	Result
CSc1ccc(/C=C/C(=O)c2nc3ccccc3[nH]2)cc1	GI50	2.35 µM (inactive)
Oc1cn(-c2ccc(Cl)cc2)nc1-c1n[nH]c(=S)n1-c1ccccc1	GI50	2.97 µM (inactive)
Cc1ccc(S(=O)(=O)N(/N=C(\N)Oc2ccc(Cl)cc2)C(=N)Oc2ccc(Cl)cc2)cc1	GI50	> 100 µM (inactive)
CC(C)C[C@@H](NC(=O)[C@@H](Cc1cccc2ccccc12)NC(=O)N1CCOCC1)B(O)O	GI50	27 µM (inactive)
CC(=O)O[C@]12CCCCCC1C1(O)C(O)CCC[C@H]12 (stereo partly drawn)	GI50	> 100 µM (inactive)
C=CCOC(=O)N1c2ccc(O)cc2[C@@]23O[C@@]24[C@@H]1C#C/C=C\C#C[C@]3(O)C(OC)(OC)C[C@@H]4C	GI50	24.2 µM (inactive)
CC1(C)OCC(COC(=O)NCn2cc(-c3ccccc3)nn2)O1 (stereo not drawn)	GI50	> 100 µM (inactive)
C#C[C@]1(O)CC[C@H]2[C@@H]3CCC4=C/C(=N/OC(=O)c5cccc6c(=O)c7ccccc7[nH]c56)CCC4[C@H]3CC[C@@]21CC (stereo partly drawn)	GI50	3.25 µM (inactive)

Please state GI50 for every compound in the list that follows.
1. C[n+]1c(-c2ccc(/C=N\NC(=O)c3ccc(C(=O)N/N=C/c4ccc(-c5cn6ccsc6[n+]5C)cc4)cc3)cc2)cn2ccsc21
2. CCC(=O)NC(Nc1cccc(F)c1C)(C(F)(F)F)C(F)(F)F
3. O=C(/C=C/c1ccc(Cl)c(Cl)c1)c1ccccc1Cl

**A:**
17.3 µM (inactive)
75.3 µM (inactive)
4.42 µM (inactive)

###

system: NCI/ADR-RES; test: NCI tumour cell line growth inhibition, 48 h
Calls of active or inactive are those of the source. Rule as the data show it: active = GI50 up to about 1.1 µM and inactive = higher.
Output constraint: value belongs to yes (active), no (inactive)

See these solved cases before continuing.
Compound	Qualitative Label
CC(=O)[C@]1(C)[C@H](C)O[C@](C)(CO)[C@H]1O[Si](C)(C)c1ccccc1	no
CC(C)(C)c1cc(O)ccc1O	no
CCOC(=O)c1[nH]c2cccc3c2c1CC(Br)C3=O (stereo unspecified)	no
O=C(O)C12C3CCC(CC3)C1(C(=O)O)C1CCC2C1 (stereo unspecified)	no

**Q:** Could you check what this test reported for Cc1ccc(S(=O)(=O)n2c3c(c4ccccc42)CCN2C(=O)C(S(=O)(=O)c4ccccc4)=CCC32)cc1 (stereo unspecified) ?
**A:** yes

**Q:** Assay result, entry C[C@@]1(CCCCCCCCCCc2ccccc2)C[C@@]2(C)OC(=O)C[C@H]2OO1 — outcome?
**A:** no

**Q:** Per the assay record, what outcome was assigned to O=c1c2c(c1=O)C1(SCCCS1)c1cc(Cl)ccc1O2 ?
**A:** no

**Q:** Please share the test call associated with CC1OC(OC2C(O)COC(OC3C(C)OC(OC4C(OC(=O)[C@]56CCC(C)(C)C[C@@H]5C5=CCC7[C@@]8(C)C[C@H](O)[C@H](OC9OC(CO)C(O)C(OC%10OC(CO)C(O)C(O)C%10O)C9O)[C@@](C)(CO)[C@@H]8CC[C@@]7(C)[C@]5(C)CC6)OCC(O)C4O)C(O)C3OC3OCC(O)C(O)C3O)C2O)C(O)C(O)C1O (stereo partly specified) .
**A:** no

**Q:** Assay result, entry Clc1ccc(CNc2nc(Cl)c3nc[nH]c3n2)cc1Cl — outcome?
**A:** no

**Q:** Fill in: this test's call for O=c1[nH]nc(-c2ccccc2)c2[nH]c3c(c12)CCCc1ccccc1-3 is ___
**A:** no

**Q:** Would you mind telling me which call this test gave CC1(C)CC(O)C(C)(C)[C@@H](O)C1 (stereo partly specified) ?
**A:** no

**Q:** Tell me the assay call for O=C(O)Cc1cc(Cl)ccc1O please.
**A:** no

All figures here come from ChEMBL document CHEMBL1201862.
